experiment: Inhibition of IL-6 production in human SW982 cells by Nano-Glo HiBit assay; conditions: SW982, read-out: pEC50 (converted)
Binary call on EC50 with cut-off 100 nM: strictly below means Condition met, and equality or higher means Condition not met.

Query :: Check if EC50 falls below 100 nM for CN1Cc2cc(-c3cc(-c4cccc(C(N)=O)c4)no3)c(O[C@H]3CC[C@@H](O)CC3)cc2C1=O .
Result :: Condition met

Query :: Check if EC50 falls below 100 nM for CN(C)C(=O)c1ccc(-c2cc(-c3cccc(C(N)=O)c3)no2)c(O[C@H]2CC[C@@H](O)CC2)n1 .
Result :: Condition not met

Query :: Check if EC50 falls below 100 nM for NC(=O)c1cccc(-c2cc(-c3cccnc3O[C@H]3CC[C@@H](O)CC3)on2)n1 .
Result :: Condition not met

Query :: Check if EC50 falls below 100 nM for CN(C)C(=O)c1ccc(-c2cc(-c3cccc(C(N)=O)n3)no2)c(O[C@H]2CC[C@@H](O)CC2)n1 .
Result :: Condition met

Query :: Check if EC50 falls below 100 nM for NC(=O)c1cccc(-c2cc(-c3ccc(N)nc3O[C@H]3CC[C@@H](O)CC3)on2)n1 .
Result :: Condition not met

Query :: Check if EC50 falls below 100 nM for CNc1ccc(-c2cc(-c3cccc(C(N)=O)n3)no2)c(O[C@H]2CC[C@@H](O)CC2)n1 .
Result :: Condition not met

Query :: Check if EC50 falls below 100 nM for NC(=O)c1cccc(-c2cc(-c3ccc(NCC(=O)N4CCS(=O)(=O)CC4)nc3O[C@H]3CC[C@@H](O)CC3)on2)n1 .
Result :: Condition not met
